Assay: yeast display, Sf9 membrane polyspecificity reagent, FACS + sequencing; frameworks hold sequencing errors
measured_property: polyreactivity (PSR sort gate)

# example entries with known answers
{"columns": ["seq_text", "measured_property", "val"],
 "data": [
  ["QVQLVESGGGLVQAGGSLRLSCADSGFIFVDYVMGWYRQSPGKERELVASISASGGTTYYADSVKGRLTISLDNAKNTVYLQMNSLKPEDTAVYYCNARWSPVNLRYGREGDYWGQGTQVTVSS", "polyreactivity (PSR sort gate)", "high polyreactivity"],
  ["QVQLVESGGGLVQAGGSLRLSCAASGSTFLDNAMGWYRQAPGKERELVASITSSGGNTYYADSVKGRFTISRDNAKNTVYLQLNSLTPEDTAVYYCAADAASYWRYNSANYDYDYWGQGTQVTVSS", "polyreactivity (PSR sort gate)", "low polyreactivity"],
  ["QVQLVESGGGLVQAGGSLRLSCAASGSIFEINAMGWYRQGPGKERELVAAITGSGGSTHYADSVKGRFTISRDNAKNTDYLQMNSLKPEDTAVYYGAAVPRYQDGYWGQGTQVTVSS", "polyreactivity (PSR sort gate)", "low polyreactivity"],
  ["QVQLVESGGGLVHAGGSLRLRCAASGSIFYDNAMGWYTQAPWKERELVASIRWSGDSTYYADSVKGRFTISRDNAKNTVYLQMTSLKPEDTAVYYCAADPVEPYFTAIAYGYWGQGTQVTVSS", "polyreactivity (PSR sort gate)", "low polyreactivity"]
]}

The record that follows has no polyreactivity (PSR sort gate) shown yet.
Given item QVQLVESGGGLVQAGGSLRLSCAASGFTLAYYAMGWYRQAPGKERELVATISRRGGSTNYADSVKGRFTISRDNAKNTVYLQMNSLKPVDTAVYYCARTLYRGKSYHGHSKYDYWGQGTQVTVSS , the value recorded as its polyreactivity (PSR sort gate) is high polyreactivity
